Test Method Notes: NCI Yeast Anticancer Drug Screen. Data for the rad50EPP+ strain (AID 151);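 also: 0% = growth of vehicle-treated control cultures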
Cond: S. cerevisiae rad50 mutant strain, at 11.0 µM, hits give high values
About 79,000 compounds went through this panel and 15% of them were active in at least one assay; those are over-represented in the sample as a whole. The source made the active and inactive calls. Rule as the data show it: active = growth inhibition above about 70%; inactive = the rest.
Observation Type: growth inhibition

[
  {
    "Compound": "O=[N+]([O-])c1oc2ccc3ccccc3c2c1CCO",
    "Observation Type": "growth inhibition",
    "Reported": "95% (active)"
  }
]

Let's switch to this compound now.
Query: growth inhibition; subject: Nc1nc(-c2ccccc2)c(-c2ccccc2)[se]1
9% (inactive)

----------
Test Method Notes: NCI Yeast Anticancer Drug Screen. Data for the mec2-1 strain (AID 157)
Cond: S. cerevisiae mec2-1 strain, at 1.2 µM, hits give high values
About 79,000 compounds went through this panel and 15% of them were active in at least one assay; those are over-represented in the sample as a whole.
Observation Type: growth inhibition (%)
Write the number in % without appending the unit.

[
  {
    "Molecule": "CNC(=O)ON(C(C)=O)C(=O)NC",
    "growth inhibition [%]": -9
  },
  {
    "Molecule": "COc1cc(C2c3cc4c(cc3[C@@H](Nc3ccc(N)cc3)C3COC(=O)[C@H]23)OCO4)cc(OC)c1O (stereo partly drawn)",
    "growth inhibition [%]": 14
  }
]

Continue with the next molecule.
Given the molecule CSC(=Nc1ccccc1)N(c1ccccc1)c1nc(=[N+](C)C)ss1 , what is its reported growth inhibition?
2

----------
Entries and their growth inhibition values follow.
Test Method Notes: NCI Yeast Anticancer Drug Screen. Data for the cln2 rad14 strain (AID 165);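 also: 0% = growth equal to vehicle treated cultures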
Cond: S. cerevisiae cln2 rad14 strain, at 50.0 µM (retest, dose inferred, filed as 5.0), hits give high values
Compounds without any hit were thinned out: in the full panel of roughly 79,000, 15% have a hit.
The reply should be a number in %, with the unit left off.

Known growth inhibition results, listed for orientation:
[
  {
    "Compound": "CC1(C)N([O-])[N+](=O)C1(C)Br (configuration not stated)",
    "Units": "%",
    "growth inhibition": 24
  },
  {
    "Compound": "[Cl][Hg][CH2]CC1CC=CCC1 (configuration not stated)",
    "Units": "%",
    "growth inhibition": 99
  },
  {
    "Compound": "O=[As]c1ccc([N+](=O)[O-])cc1 (configuration not stated)",
    "Units": "%",
    "growth inhibition": 98
  },
  {
    "Compound": "CCN(CC)C(=S)S",
    "Units": "%",
    "growth inhibition": 99
  },
  {
    "Compound": "CC1(Cl)CC(C)(/C=C/Cl)C(Cl)CC1Cl (configuration not stated)",
    "Units": "%",
    "growth inhibition": -20
  },
  {
    "Compound": "O=P(CCCCP(=O)(c1ccccc1)c1ccccc1)(c1ccccc1)c1ccccc1.[Cl][Sn]([Cl])([c]1ccccc1)[c]1ccccc1",
    "Units": "%",
    "growth inhibition": 97
  },
  {
    "Compound": "COc1cc(N(CCCl)CCCl)ccc1C=Nc1cccc(Cl)c1",
    "Units": "%",
    "growth inhibition": 20
  },
  {
    "Compound": "COc1cc(CC(=O)N2CC2)cc(OC)c1OC",
    "Units": "%",
    "growth inhibition": -3
  }
]

# growth inhibition lookup, item Cc1cccc(NC(=O)CBr)c1
99
